These data points were gathered from PubChem BioAssay (NCI).

# Tested on: MOLT-4 leukemia
# methodNotes: NCI-60 one-dose screen, 48 h
# condition: 10 µM unless noted
This is part of a sample that, as a whole, favours compounds with a hit. Of some 83,000 tested, about 20% had one in any assay. The source made the active and inactive calls. Rule for the calls: active = growth percent below 10; inactive = the rest.
// classify into TRUE = active, FALSE = inactive

Just curious, what result did CN1C/C=C\CCOc2cccc(c2)-c2ccnc(n2)Nc2cccc(c2)C1 get here? TRUE

Just curious, what result did CCCCN1CCCC[C@@H]1C(=O)N[C@H](C(=O)N(C)[C@H](CCc1nc(C(=O)N[C@@H](Cc2ccccc2)C[C@H](C)C(=O)OC)cs1)C(C)C)C(C)C get here? FALSE

Just curious, what result did Cc1cc(Nc2ncc(Cl)c(Nc3ccccc3S(=O)(=O)C(C)C)n2)c(OC(C)C)cc1C1CCNCC1 get here? TRUE

Just curious, what result did CC1(O)CC(c2nc(-c3ccc4ccc(-c5ccccc5)nc4c3)c3c(N)nccn23)C1 (stereo not drawn) get here? FALSE

Just curious, what result did O=C(NOCCO)c1ccc2cncn2c1Nc1ccc(I)cc1F get here? FALSE

Just curious, what result did NC1=Nc2cc(OCCCN3Cc4ccccc4C3)c(OCC3CC3)cc2C12CCCC2 get here? FALSE

Just curious, what result did O=C(Nc1nc2cccc(-c3ccc(CN4CCS(=O)(=O)CC4)cc3)n2n1)C1CC1 get here? FALSE

Just curious, what result did O=c1[nH]c([C@@H]2CCCN2)nc2c1oc1ccc(Cl)cc12 get here? FALSE

Just curious, what result did COCCOc1cnc2ccn([C@H](C)c3nnc4c(F)cc(-c5cnn(C)c5)cn34)c(=O)c2c1 get here? FALSE

Just curious, what result did COc1cc(Nc2ncc(F)c(Nc3ccc4c(n3)N(COP(=O)(O)O)C(=O)C(C)(C)O4)n2)cc(OC)c1OC get here? FALSE

Just curious, what result did COC(=O)CCCNc1c(-c2c(O)c(O)cc3c(O)c(-c4c(C)cc5c(-c6nc7ccccn7c6NCCCC(=O)OC)c(O)c(O)cc5c4O)c(C)cc23)nc2ccccn12 get here? FALSE

Just curious, what result did CC1(C=O)NC(=O)NC1=O (stereo not drawn) get here? FALSE

Just curious, what result did FC(F)(F)c1ccc(CNc2ccc(Cc3c[nH]c4ncc(Cl)cc34)cn2)cn1 get here? TRUE

Just curious, what result did Cc1cnc(Nc2ccc(OCCN3CCCC3)cc2)nc1Nc1cccc(S(=O)(=O)NC(C)(C)C)c1 get here? TRUE

Just curious, what result did C/C(=C(/c1ccc(Cl)cc1)c1ccc(OCCN2CCCCC2)cc1)c1ccccc1 get here? FALSE

Just curious, what result did NC[C@@](O)(c1ccc(Cl)cc1)c1ccc(-c2cn[nH]c2)cc1 get here? FALSE

Just curious, what result did Cc1ccc(N)cc1CN1C(=O)c2ccccc2C1=O get here? FALSE

Just curious, what result did Cn1ncc(Cl)c1-c1cc(C(=O)N[C@H](CN)Cc2cccc(F)c2)sc1Cl get here? TRUE

Just curious, what result did CO[C@@H](C(=O)N1Cc2[nH]nc(NC(=O)c3ccc(N4CCN(C)CC4)cc3)c2C1)c1ccccc1 get here? FALSE

Just curious, what result did C=CC(=O)N1CCC[C@@H](n2nc(-c3ccc(Oc4ccccc4)cc3)c3c(N)ncnc32)C1 get here? FALSE

Just curious, what result did C[C@@H]1COC(Nc2ccc3ncnc(Nc4ccc(OCc5nccs5)c(Cl)c4)c3c2)=N1 get here? FALSE

Just curious, what result did COc1ccc2c(CCCCC(c3ccccc3)c3ccccc3)c3[n+](cc2c1OC)CCc1cc2c(cc1-3)OCO2 get here? TRUE

Just curious, what result did Cc1ccc2oc(=O)cc(-c3cc(-c4cc5ccccc5oc4=O)nc(N)c3C#N)c2c1 get here? FALSE

Just curious, what result did CC1(COc2ccc3c(c2)ncn3-c2ccc3cccc(N4CCC(N)CC4)c3n2)COC1 get here? TRUE

Just curious, what result did N#Cc1c(-c2ccc(Cl)cc2)csc1NC(=O)Nc1cccc(C(F)(F)F)c1 get here? TRUE

Just curious, what result did CS(=O)(=O)N1CCc2c(-c3cnc(N)nc3)nc(N3CCOCC3)nc21 get here? TRUE

Just curious, what result did CCCCn1c(C)nc2cc(Nc3nc(N4CCCCC4)nc4nc[nH]c34)ccc21 get here? TRUE

Just curious, what result did C#Cc1cccc(Nc2ncnc3cc(OC)c(OCCCCCCC(=O)NO)cc23)c1 get here? TRUE

Just curious, what result did Cn1cnc2c(F)c(Nc3ccc(Br)cc3F)c(C(=O)NOCCO)cc21 get here? FALSE

Just curious, what result did CC(CCCC(=O)O)c1ccoc1 (stereo not drawn) get here? FALSE

Just curious, what result did NC1=Nc2ccccc2N(O)N1 get here? FALSE

Just curious, what result did CC(=O)O[C@]1(C)C[C@H](O)[C@]2(O)C=CO[C@H](O[C@@H]3O[C@H](CO)[C@@H](O)[C@H](O)[C@H]3O)[C@@H]21 get here? FALSE

Just curious, what result did C#Cc1cccc(Nc2ncnc3cc4c(cc23)OCCOCCOCCO4)c1 get here? FALSE

Just curious, what result did Cc1ccc(C(=O)Nc2ccc(CN3CCN(C)CC3)c(C(F)(F)F)c2)cc1C#Cc1cnc2cccnn12 get here? TRUE

Just curious, what result did CC(=O)NCC(=O)N1[C@@H]2CC[C@H]1c1ccc(Nc3ncc(C(F)(F)F)c(NC4CCC4)n3)cc12 get here? FALSE

Just curious, what result did CNC(=O)CN1CCC(Oc2cc3c(Nc4cccc(Cl)c4F)ncnc3cc2OC)CC1 get here? FALSE

Just curious, what result did Cc1cn(-c2cc(NC(=O)c3ccc(C)c(Nc4nccc(-c5cnccn5)n4)c3)cc(C(F)(F)F)c2)cn1 get here? FALSE

Just curious, what result did C=C1[C@@H](O)C[C@H]2C(C)(C)C[C@H](Cl)C[C@]2(C)[C@H]1C[C@H](O)[C@H]1CC(=O)NC1=O get here? TRUE
